In this section we review reported pIC50 values for a set of compounds.
Biological target: Protein kinase C alpha type (Homo sapiens, UniProt P17252)
To interpret pIC50, take it as minus log10 of a concentration measured in moles per litre.

compound="O=C(N[C@@H]1CCCCCC1OC(=O)c1ccc(C(=O)C2C(O)=CC=CC2C(=O)O)c(O)c1)c1ccc(O)cc1 (some centres not stated)" metric_name=pIC50 value_observed=9.57

Could you now look at the following compound, please?
Give the reported pIC50 for this compound. O=C(N[C@@H]1CNCCC[C@H]1OC(=O)c1cc(O)c(C(=O)c2c(O)cccc2C(=O)O)c(O)c1)c1ccc(O)cc1 [Acyclic Balanol Analog (-)-1]
10.13
